Hi there, I'd appreciate the recorded IC50 for every entry that follows.
Target: human glucagon receptor (Homo sapiens, UniProt P47871)
Construct: expressed in transfected cells; host or cells: BHK (baby hamster kidney) cells
Sequence (P47871 26-477): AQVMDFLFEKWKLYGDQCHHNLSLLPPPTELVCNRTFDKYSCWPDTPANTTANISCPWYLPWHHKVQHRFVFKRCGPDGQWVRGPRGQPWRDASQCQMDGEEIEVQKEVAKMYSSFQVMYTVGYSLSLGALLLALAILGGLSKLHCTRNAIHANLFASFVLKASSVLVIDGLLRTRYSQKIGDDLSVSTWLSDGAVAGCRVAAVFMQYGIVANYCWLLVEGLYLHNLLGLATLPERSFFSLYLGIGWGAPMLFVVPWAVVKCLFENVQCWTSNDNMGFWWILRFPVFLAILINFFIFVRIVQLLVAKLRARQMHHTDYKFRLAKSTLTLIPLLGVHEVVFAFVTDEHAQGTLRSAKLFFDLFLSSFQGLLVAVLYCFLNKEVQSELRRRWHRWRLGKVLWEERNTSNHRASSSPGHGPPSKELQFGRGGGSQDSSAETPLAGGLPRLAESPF
Experiment: Glucagon Binding Assay (III)
Settings: BHK cell membranes, WGA SPA beads, 125I-glucagon; read-out: Glu Bd Assay (III) IC50
// note: answer is a bare numeric in µM

Query block: Give its IC50 value. Item: CCC1CCC(N(Cc2ccc(C(=O)NCCC(=O)O)cc2)C(=O)Nc2cc(C(F)(F)F)cc(C(F)(F)F)c2)C1 (stereo not shown)
Result block: 0.494

Query block: Give its IC50 value. Item: CC(C)(C)C1CCC(N(Cc2ccc(C(=O)NCCC(=O)O)cc2)C(=O)Oc2cc(Cl)cc(Cl)c2)CC1 (stereo not shown)
Result block: 0.176

Query block: Give its IC50 value. Item: O=C(Nc1nn[nH]n1)c1ccc(CN(CC(c2ccccc2)c2ccccc2)C(=O)Cc2ccc(OC(F)(F)F)cc2)cc1
Result block: 0.627

Query block: Give its IC50 value. Item: O=C(Nc1nn[nH]n1)c1ccc(CN(C(=O)/C=C/c2cccc3ccccc23)c2ccc(C3CCCCC3)cc2)cc1
Result block: 0.282
